# key: entry, value: cell viability
Tested on: SEM cells
test.description: cell viability relative to DMSO control; higher = less cytotoxic
condition.description: RPMI 5 mM glucose + 10% dialyzed FBS; 48 h; 0.0211 µM
Kindly answer with a numeric value in %, unit omitted.

Cc1c(C)c2c(c(C)c1O)CCC(C)(COc1ccc(CC3SC(=O)NC3=O)cc1)O2 (centres undefined) = 106
CCOc1cc(CC(=O)N[C@@H](CC(C)C)c2ccccc2N2CCCCC2)ccc1C(=O)O = 127
COc1cc(CNC(=O)CCCC/C=C/C(C)C)ccc1O = 101
CC(C)C[C@H](NC(=O)[C@@H](O)[C@H](N)Cc1ccccc1)C(=O)O = 135
O=C(Nc1cccnn1)N1CCC(=Cc2cccc(Oc3ccc(C(F)(F)F)cn3)c2)CC1 = 17

Data point: "N[S+](=O)([O-])OC[C@@H]1C[C@@H](n2ccc3c(N[C@H]4CCc5ccccc54)ncnc32)C[C@@H]1O" ; cell viability = 92.1

The recorded cell viability for entry "CON(C)C(=O)N1/N=C(S[C@@]1(CCCN)C2=CC=CC=C2)/C3=CC(=CC=C3F)F" equals 30.4

The reported cell viability of the molecule "Cc1cccc(/C=N/Nc2cc(N3CCOCC3)nc(OCCc3ccccn3)n2)c1" was 96.8

# cell viability (molecule: "CCOC(=O)\C1=C\[C@@H](OC(CC)CC)[C@H](NC(C)=O)[C@@H](N)C1" ) is 84.9

* * *

Test system: NOMO1
test.description: cell viability relative to DMSO control; higher = less cytotoxic
condition.description: HPLM + 10% dialyzed FBS; 48 h; 1.71 µM
The entries below are paired with their reported cell viability.
Field format: number, assumed %, no unit text.

Some entries whose results are on file:
OCc1ccc(-c2ccc(-c3ccc(CO)s3)o2)s1 = 107
N#C[C@H](O[C@@H]1O[C@H](CO[C@@H]2O[C@H](CO)[C@@H](O)[C@H](O)[C@H]2O)[C@@H](O)[C@H](O)[C@H]1O)c1ccccc1 = 96.6
C#CCN[C@@H]1CCc2ccccc21.CS(=O)(=O)O = 82.6
Cc1c[nH]c(-c2cnc(NCCNc3ccc(C#N)cn3)nc2-c2ccc(Cl)cc2Cl)n1 = 93.3
CN(C)CCN1C(=O)c2cccc3cc(N)cc(c23)C1=O = 123
CN1CCN(CCCN2c3ccccc3Sc3ccc(C(F)(F)F)cc32)CC1 = 95.4
O=C1NC(=O)/C(=C/c2ccc(-c3ccc(F)cc3O)o2)S1 = 91.8
N=C1N[C@H]2[C@H](CS[C@H]2CCCCC(=O)O)N1 = 129
Cc1ccc2c(c1)c1c(n2CCc2ccc(C)nc2)CCN(C)C1 = 134

The recorded cell viability for "COc1cc(CNC(=O)CCCC/C=C/C(C)C)ccc1O" is 77

* * *

Test system: SEM cells
test.description: cell viability relative to DMSO control; higher = less cytotoxic
condition.description: RPMI 5 mM glucose + 10% FBS; 48 h; 0.0632 µM
Measured cell viability values are reported for all entries that follow.
Respond numerically; units are % and should not be typed.

NC(=O)c1ncn([C@@H]2O[C@H](CO)[C@@H](O)[C@H]2O)c1O = 131

Lab note: measured cell viability of "CN1CCN(CCOc2cc(OC3CCOCC3)c3c(Nc4c(Cl)ccc5c4OCO5)ncnc3c2)CC1" was 128

Measured cell viability of "C[C@]12CCC\3=C\4CCC(=O)\C=C4CC[C@H]3[C@@H]1CC[C@@]2(O)CC#N" : 143

Per the records, this molecule ( "CCOC(=O)/C=C/[C@H](C[C@@H]1CCNC1=O)NC(=O)[C@@H](CC(=O)[C@@H](NC(=O)c1cc(C)on1)C(C)C)Cc1ccc(F)cc1" ) has cell viability equal to 127

* * *

Entries and their cell viability
Tested on: SEM cells
test.description: cell viability relative to DMSO control; higher = less cytotoxic
condition.description: RPMI 5 mM glucose + 10% FBS; 48 h; 0.00702 µM
Numbers only here, please. The scale is %.

Use these answered entries as a reference point.
CCOC1=CC=CC=C1N\2C(=O)C3=C(C=CC=C3)\N=C2C(C)N4CCN(CC4)C(=O)COC5=CC=C(Cl)C=C5 (stereo unspecified) = 108
CNC(=O)CN1CCC(Oc2cc3c(Nc4cccc(Cl)c4F)ncnc3cc2OC)CC1 = 116
Cc1onc(-c2ccccc2)c1C(=O)N[C@@H]1C(=O)N2[C@@H]1SC(C)(C)[C@@H]2C(=O)[O-].[Na+] = 105

The value of cell viability measured for the compound "C#CCN[C@@H]1CCc2ccccc21.CS(=O)(=O)O" turned out to be 56.8

So, "CC(C)(O)c1cc2nc(-c3cnc(N)nc3)nc(N3CCOCC3)c2s1" ? Its cell viability was 74.3

Form: compound = "Nc1ncnc2c1nc(Cl)n2[C@@H]1O[C@H](CO)[C@@H](O)[C@H]1O" ; cell viability = 123

Entry under test: "OC1=CC2=C(C(=C1)O)C(=O)\C(=C(/O2)C3=CC(=C(O)C=C3)O)O" . Its cell viability was 106

Form field cell viability, entry "COC1=CC=C2/C3=N/CCN3\C(=N/C2=C1OC)NC(=O)C4=CC=CN=C4" : 99.7

Measured cell viability of "CCOc1ccc(Cc2cc([C@@H]3O[C@H](CO)[C@@H](O)[C@H](O)[C@H]3O)ccc2Cl)cc1" : 110

Form field cell viability, entry "CNC(=O)C1=CC=C(C)C(=C1)N2C(=C/C(=C(/Br)C2=O)OCC3=C(F)C=C(F)C=C3)\C" : 124

cell viability reported for this compound "COc1cc(CNC(=O)CCCC/C=C/C(C)C)ccc1O" : 121

Reported cell viability of "CO/N=C(\C(=O)N[C@@H]1C(=O)N2C(C(=O)OCOC(=O)C(C)(C)C)=C(/C=C\c3scnc3C)CS[C@H]12)c1csc(N)n1" : 91.4

# cell viability (compound: "Cc1ccc2c(c1)c1c(n2CCc2ccc(C)nc2)CCN(C)C1" ) is 145

Quick note, cell viability for "COc1ccccc1N1CCN(CCN(C(=O)C2CCCCC2)c2ccccn2)CC1" landed at 131

The recorded cell viability for "CN1CCN(CCCN2c3ccccc3Sc3ccc(C(F)(F)F)cc32)CC1" is 90.7

cell viability measured on "C[C@@H](O)[C@@H]1NC(=O)[C@H](CCCCN)NC(=O)[C@@H](Cc2c[nH]c3ccccc23)NC(=O)[C@H](Cc2ccccc2)NC(=O)[C@@H](NC(=O)[C@H](N)Cc2ccccc2)CSSC[C@@H](C(=O)N[C@H](CO)[C@@H](C)O)NC1=O" = 83.2

* * *

Tested on: SEM cells
test.description: cell viability relative to DMSO control; higher = less cytotoxic
condition.description: HPLM + 10% dialyzed FBS; 48 h; 0.000781 µM
# if measured cell viability < 90%: 1  # else: 0

Here's what some known entries look like.
CN1CCN(CCOc2cc(OC3CCOCC3)c3c(Nc4c(Cl)ccc5c4OCO5)ncnc3c2)CC1 = 0
N[S+](=O)([O-])OC[C@@H]1C[C@@H](n2ccc3c(N[C@H]4CCc5ccccc54)ncnc32)C[C@@H]1O = 0
Nc1ncnc2c1c(-c1cccc(OCc3ccccc3)c1)cn2C1CC(CN2CCCC2)C1 (stereo not given) = 0
O=C1NC(=O)/C(=C/c2ccc(-c3ccc(F)cc3O)o2)S1 = 0
NC/1=N/C(=O)N(/C=N1)[C@@H]2O[C@H](CO)[C@@H](O)[C@H]2O = 1
CCOc1cc(CC(=O)N[C@@H](CC(C)C)c2ccccc2N2CCCCC2)ccc1C(=O)O = 1

**Query** Would you kindly verify if cell viability of "CN(C)/N=N/c1nc[nH]c1C(N)=O" is strictly less than 90%?
**Result** 0

**Query** Consider the molecule CCOC1=CC=CC=C1N\2C(=O)C3=C(C=CC=C3)\N=C2C(C)N4CCN(CC4)C(=O)COC5=CC=C(Cl)C=C5 (stereo not given) . Is its cell viability strictly less than 90%?
**Result** 0

**Query** Lab log: compare recorded cell viability with 90%; is it strictly lower for "COc1cccc2c1[C@]13CCN(CC4CC4)[C@H](C2)[C@]1(OC)CCC(=O)C3" ?
**Result** 1

* * *

System: NOMO1
test.description: cell viability relative to DMSO control; higher = less cytotoxic
condition.description: RPMI 5 mM glucose + 10% dialyzed FBS; 48 h; 0.00702 µM
Form field: cell viability (one value per entry).
Write the numeric value and append its unit.

Study these solved cases before continuing.
CCOC(=O)/C=C/[C@H](C[C@@H]1CCNC1=O)NC(=O)[C@@H](CC(=O)[C@@H](NC(=O)c1cc(C)on1)C(C)C)Cc1ccc(F)cc1 = 143%
C=CCc1ccc(O)c(-c2ccc(O)c(CC=C)c2)c1 = 107%
N#C/C(C(=O)c1ccc(Cl)cc1Cl)=C1/NC(=O)c2ccc(Cl)cc2N1 = 114%
CO/N=C(/C(=O)N[C@@H]1C(=O)N2C(C(=O)O)=C(CSC(=O)c3ccco3)CS[C@H]12)c1csc(N)n1 = 99.9%
CN1CCN(C(=O)O[C@H]2c3nccnc3C(=O)N2c2ccc(Cl)cn2)CC1 = 103%
C[C@@H](O)[C@@H]1NC(=O)[C@H](CCCCN)NC(=O)[C@@H](Cc2c[nH]c3ccccc23)NC(=O)[C@H](Cc2ccccc2)NC(=O)[C@@H](NC(=O)[C@H](N)Cc2ccccc2)CSSC[C@@H](C(=O)N[C@H](CO)[C@@H](C)O)NC1=O = 87%

Continue with the next compound.
Record for "NC/1=N/C(=O)N(/C=N1)[C@@H]2O[C@H](CO)[C@@H](O)[C@H]2O" under target or system NOMO1: cell viability reported as 106%
